# assay-system: HIV-1 JR-CSF Env R315A (HIV-1 isolate JR-CSF) (UniProt P20871)
# assay-text: cell-based or functional assay
measured-metric: Fold IC50 increase relative to wild-type (fold)

PGT-126 (antibody, V domains shown) VH: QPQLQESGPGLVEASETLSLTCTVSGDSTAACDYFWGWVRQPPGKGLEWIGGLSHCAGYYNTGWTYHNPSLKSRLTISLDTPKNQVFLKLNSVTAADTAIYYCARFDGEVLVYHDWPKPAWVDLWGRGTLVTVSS VL: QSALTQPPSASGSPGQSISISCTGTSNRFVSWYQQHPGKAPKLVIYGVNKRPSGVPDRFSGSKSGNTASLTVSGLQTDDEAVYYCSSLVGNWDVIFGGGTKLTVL : 1
PGT-123 (antibody, V domains shown) VH: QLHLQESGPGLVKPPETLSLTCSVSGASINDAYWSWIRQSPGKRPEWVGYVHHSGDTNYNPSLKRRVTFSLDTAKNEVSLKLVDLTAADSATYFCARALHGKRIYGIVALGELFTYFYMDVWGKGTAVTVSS VL: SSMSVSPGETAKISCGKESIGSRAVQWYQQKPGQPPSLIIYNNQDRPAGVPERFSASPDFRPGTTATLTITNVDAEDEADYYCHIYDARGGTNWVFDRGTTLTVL : 0.7
PGT-135 (antibody, V domains shown) VH: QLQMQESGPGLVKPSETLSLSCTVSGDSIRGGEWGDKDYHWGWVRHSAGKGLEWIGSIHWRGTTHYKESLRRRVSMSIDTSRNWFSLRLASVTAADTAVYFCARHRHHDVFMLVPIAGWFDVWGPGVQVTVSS VL: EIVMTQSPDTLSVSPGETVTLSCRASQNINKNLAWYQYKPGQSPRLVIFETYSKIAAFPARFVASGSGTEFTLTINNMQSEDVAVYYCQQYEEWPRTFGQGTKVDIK : 1.8
PGT-128 (antibody, V domains shown) VH: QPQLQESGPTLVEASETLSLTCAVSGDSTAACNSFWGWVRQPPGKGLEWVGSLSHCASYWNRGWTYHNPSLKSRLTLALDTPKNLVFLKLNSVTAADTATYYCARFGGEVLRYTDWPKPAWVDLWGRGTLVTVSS VL: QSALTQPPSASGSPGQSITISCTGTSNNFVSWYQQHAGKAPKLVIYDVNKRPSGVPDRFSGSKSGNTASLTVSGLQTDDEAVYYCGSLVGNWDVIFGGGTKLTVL : 0.4
PGT-130 (antibody, V domains shown) VH: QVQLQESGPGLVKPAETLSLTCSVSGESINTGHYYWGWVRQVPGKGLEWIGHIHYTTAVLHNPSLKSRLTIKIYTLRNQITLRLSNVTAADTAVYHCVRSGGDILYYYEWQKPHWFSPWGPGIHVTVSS VL: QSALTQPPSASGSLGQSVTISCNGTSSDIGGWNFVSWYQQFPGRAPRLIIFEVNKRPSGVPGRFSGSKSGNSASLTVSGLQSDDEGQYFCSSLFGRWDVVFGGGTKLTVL : 0.6
